// provenance: ChEMBL document CHEMBL5724914

- measurement_context: human gut metagenome, 24 h, 2 µM; note: call rule not given here
parameter: Bacterial Biotransformation

Worked examples follow.
Nc1c2c(nc3ccccc13)CCCC2 :: Compound NOT metabolized
NC12CC3CC(CC(C3)C1)C2 :: Compound NOT metabolized
CC(O)(CS(=O)(=O)c1ccc(F)cc1)C(=O)Nc1ccc(C#N)c(C(F)(F)F)c1 (centres undefined) [BICALUTAMIDE] :: Compound NOT metabolized
CC(=O)O[C@]1(C(C)=O)CC[C@H]2[C@@H]3C=C(Cl)C4=CC(=O)[C@@H]5C[C@@H]5[C@]4(C)[C@H]3CC[C@@]21C [CYPROTERONE ACETATE] :: Compound metabolized

Need Bacterial Biotransformation of "Cc1ccc(-c2cc(C(F)(F)F)nn2-c2ccc(S(N)(=O)=O)cc2)cc1" , thanks.
Compound NOT metabolized

Quick check: Bacterial Biotransformation of COc1ccccc1OCC(O)COC(N)=O (centres undefined) ?
Compound NOT metabolized
